Biological target: hAT1R (Homo sapiens, UniProt P30556)
Sequence (P30556 1-359): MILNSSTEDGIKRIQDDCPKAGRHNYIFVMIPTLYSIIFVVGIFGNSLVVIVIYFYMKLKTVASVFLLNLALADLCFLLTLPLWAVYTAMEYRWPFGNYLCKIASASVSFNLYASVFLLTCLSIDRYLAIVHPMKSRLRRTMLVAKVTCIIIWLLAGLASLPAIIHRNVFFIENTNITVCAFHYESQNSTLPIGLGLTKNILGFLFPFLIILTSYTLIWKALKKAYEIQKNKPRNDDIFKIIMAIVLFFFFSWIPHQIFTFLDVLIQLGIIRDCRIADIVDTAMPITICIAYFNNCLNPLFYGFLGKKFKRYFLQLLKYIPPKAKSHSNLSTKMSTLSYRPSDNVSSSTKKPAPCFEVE
Test: cell-based
Conditions: agonist mode
parameter_measured: BRET P63 Ymax (%)
Only the number, expressed in %, is required.

// query BRET P63 Ymax value for entry CCc1nc2c(C)cc(C)nc2n1Cc1ccc(-c2cc(-c3cccc(C)c3)ccc2-c2nnn[nH]2)cn1 [Example 177]
23.8

Same lookup for CCOc1nc2cccc(C(=O)O)c2n1Cc1ccc(-c2cc(-n3cc4ccccc4n3)ccc2-c2nn[nH]n2)cc1 [Example 341] , please.
18.8

Do the same for CCOc1nc2cccc(C(=O)O)c2n1Cc1ccc(-c2cc(-c3cc(OC)ccn3)ccc2-c2noc(=O)[nH]2)cc1 [Example 301] please
31.2

Now consider CCOc1nc2cccc(C(=O)O)c2n1Cc1ccc(-c2cc(-n3cc(C(C)C)nn3)ccc2-c2nn[nH]n2)cc1 [Example 344] .
10.4

Now consider CCCC1=NC2(CCOC2)C(=O)N1Cc1ccc(-c2cc(-c3ccccc3O)ccc2-c2nnn[nH]2)cc1 (single isomer, unassigned) [Example 164] and answer again.
15.6

Quick one: CCc1nc2c(C)cc(C)nc2n1Cc1ccc(-c2cc(-n3ncc4ccccc43)ccc2-c2nnn[nH]2)cc1 [Example 215]
22.7

Next molecule: CCc1nc2c(C)cc(C)nc2n1Cc1ccc(-c2cc(OC3CCCCC3)ccc2-c2nnn[nH]2)cc1 [Example 209]
32.6

// repeat for CCc1nc2c(C)cc(C)nc2n1Cc1ccc(-c2cc(-c3ccsn3)ccc2-c2nn[nH]n2)cc1 [Example 57] and report
5.0

Now try CCc1nc2c(C)cc(C)nc2n1Cc1ccc(-c2cc(-c3cccc(C)c3)ccc2-c2nn[nH]n2)c(F)c1 [Example 267] .
17.7

Cool, now CCCCC1=NC2(CCOCC2)C(=O)N1Cc1ccc(-c2cc(-c3ccccc3O)ccc2-c2nnn[nH]2)cc1 [Example 157]
16.5

Now the molecule CCc1nc2c(C)cc(C)nc2n1Cc1ccc(-c2cc(Oc3ccccc3F)ccc2-c2noc(=O)[nH]2)cc1 [Example 214]
43.3

What about CCc1nc2c(C)cc(C)nc2n1Cc1ccc(-c2cc(-c3ccc(CO)cc3)ccc2C(=O)O)cc1 [Example 183] ?
13.2

Also CCc1nc2c(C)cc(C)nc2n1Cc1ccc(-c2cc(-n3nnc4ccccc43)ccc2-c2nnn[nH]2)cc1 [Example 233] ?
17.9

Queued: CCc1cn(-c2ccc(-c3nnn[nH]3)c(-c3ccc(Cn4c(CC)nc5c(C)cc(C)nc54)cc3)c2)nn1 [Example 231]
13.8

And for CCc1nc2c(C)cc(C)nc2n1Cc1ccc(-c2cc(-c3cn(CC(C)C)nn3)ccc2-c2nnn[nH]2)cc1 [Example 240] ?
9.5

Similarly, CCc1nc2c(C)cc(C)nc2n1Cc1ccc(-c2cc(-c3ccccc3)ccc2-c2noc(=O)[nH]2)cc1 [Example 32] ?
25.2

Another: CCc1nc2c(C)cc(C)nc2n1Cc1ccc(-c2cc(-c3cccc(C)c3)ccc2-c2nnn[nH]2)nc1 [Example 175]
12.4

Input CCCCn1cc(-c2ccc(-c3nnn[nH]3)c(-c3ccc(Cn4c(CC)nc5c(C)cc(C)nc54)cc3)c2)nn1 [Example 241]
17.5
